Test system: HIV infected lymphocyte derived CEM cells
Assay: Cellular infection assay in CEM cells, XTT cytopathic procedure (EC50)
Details: CEM cells; TC50/EC50
Experimental: Compound concentrations were 0.32, 1, 3.2, 10, 32, and 100 uM.
For each of the compounds below, state its TI (therapeutic index, TC50/EC50).
Quick one: just the number, no unit, thanks!

Quick one: give measured TI (therapeutic index, TC50/EC50) for Cc1c(F)cccc1CCC1(C(C)C)CC(O)=C(Sc2cc3sc(N)nc3cc2C(C)(C)C)C(=O)O1 (racemic) [Example 84]
198

Quick one: give measured TI (therapeutic index, TC50/EC50) for CC(C)[C@]1(CCc2cccc(F)c2)CC(O)=C(Sc2cc3sc(N)nc3cc2C(C)(C)C)C(=O)O1 [Example 83]
235

Quick one: give measured TI (therapeutic index, TC50/EC50) for Cc1cc(SC2=C(O)CC(CCC3CCCO3)(C(C)C)OC2=O)c(C(C)(C)C)cc1N (racemic) [Example 56]
21

Quick one: give measured TI (therapeutic index, TC50/EC50) for Cc1cc(SC2=C(O)CC(CCc3ccc(CO)s3)(C(C)C)OC2=O)c(C(C)(C)C)cc1O (racemic) [Example 37]
24

Quick one: give measured TI (therapeutic index, TC50/EC50) for CC(C)C1(CCc2ccccc2CO)CC(O)=C(Sc2sc3ccccc3c2C(C)(C)C)C(=O)O1 (stereo not shown) [Example 22]
43

Quick one: give measured TI (therapeutic index, TC50/EC50) for CC(C)[C@]1(CCc2ccccc2)CC(O)=C(Sc2cc3cc[nH]c3cc2C(C)(C)C)C(=O)O1 [Example 73]
69

Quick one: give measured TI (therapeutic index, TC50/EC50) for CC(C)[C@]1(CCc2ccccc2)CC(O)=C(Sc2cc3sc(NS(C)(=O)=O)nc3cc2C(C)(C)C)C(=O)O1 [Example 79]
56

----------
For each of the compounds below, state its pKi.
Target: Recombinant HIV-1 protease (Human immunodeficiency virus type 1 group M subtype B)
Construct: Recombinant HIV-1 protease (>96% purity); purchased Bachem Bioscience, Inc. (King of Prussia, Pa.)
Assay: HIV protease assay (Ki determination, HPLC readout of substrate III cleavage)
Type: biochemical
Details: recombinant HIV-1 protease; read-out: Inhib of HIV Protease KI
For clarity, pKi is expressed as the negative log10 of concentration in mol/L.

Quick one: give measured pKi for Cc1cc(SC2=C(O)CC(CCc3ccoc3)(C(C)C)OC2=O)c(C(C)(C)C)cc1CO (stereo not drawn) [Example 4]
9.46

Quick one: give measured pKi for Cc1cc(SC2=C(O)CC(CCc3cc[nH]n3)(C(C)C)OC2=O)c(C(C)(C)C)cc1N (stereo not drawn) [Example 41]
8.19

Quick one: give measured pKi for CC(C)c1cc2nc(N)sc2cc1SC1=C(O)C[C@@](CCc2ccccc2)(C(C)C)OC1=O [Example 14]
9.17

Quick one: give measured pKi for Cc1cc(SC2=C(O)CC(CCc3ccncc3)(C(C)C)OC2=O)c(C(C)(C)C)cc1CO (stereo not drawn) [Example 1]
8.82

Quick one: give measured pKi for Cc1cc(SC2=C(O)CC(CCc3csc(CO)c3)(C(C)C)OC2=O)c(C(C)(C)C)cc1CO (stereo not drawn) [Example 9]
9.72

Quick one: give measured pKi for Cc1cc(SC2=C(O)CC(CCc3ccsc3)(C(C)C)OC2=O)c(C(C)(C)C)cc1CO (stereo not drawn) [Example 7]
9.77

Quick one: give measured pKi for Cc1cc(SC2=C(O)CC(CCc3cccs3)(C(C)C)OC2=O)c(C(C)(C)C)cc1CO (stereo not drawn) [Example 8]
9.46

Quick one: give measured pKi for Cc1cc(SC2=C(O)CC(CCc3nccs3)(C(C)C)OC2=O)c(C(C)(C)C)cc1CO (stereo not drawn) [Example 25]
9.24

Quick one: give measured pKi for Cc1csc(CCC2(C(C)C)CC(O)=C(Sc3cc(C)c(CO)cc3C(C)(C)C)C(=O)O2)n1 (stereo not drawn) [Example 26]
9.35

Quick one: give measured pKi for Cc1cc(SC2=C(O)CC(CCc3ccsc3CO)(C(C)C)OC2=O)c(C(C)(C)C)cc1N (stereo not drawn) [Example 11]
9.64

Quick one: give measured pKi for Cc1cc(SC2=C(O)CC(CCc3ccc(O)cc3)(C(C)C)OC2=O)c(C(C)(C)C)cc1CO (stereo not drawn) [Reference Agent 2, reference compound]
9.66

Quick one: give measured pKi for Cc1cc(SC2=C(O)C[C@@](CCc3ccsc3)(C(C)C)OC2=O)c(C(C)(C)C)cc1CO [Example 12]
10.15

Quick one: give measured pKi for Cc1cc(SC2=C(O)CC(CCc3ccco3)(C(C)C)OC2=O)c(C(C)(C)C)cc1CO (stereo not drawn) [Example 5]
9.11

Quick one: give measured pKi for CC(C)C1(CCc2ccccc2CO)CC(O)=C(Sc2sc3ccccc3c2C(C)(C)C)C(=O)O1 (stereo not drawn) [Example 22]
9.07

Quick one: give measured pKi for Cc1cc(SC2=C(O)CC(CCc3cccnc3)(C(C)C)OC2=O)c(C(C)(C)C)cc1CO (stereo not drawn) [Example 2]
9.05
